assay.endpoint: pIC50
pIC50 is defined as minus the log10 of a concentration measured in mol/L.

API: value(readout=pIC50, system=cyclooxygenase-1 (Homo sapiens, UniProt P23219)) for record Cc1nc(C2CCCCC2)c(-c2ccc(S(N)(=O)=O)cc2)o1 [Control 1, reference compound]
4.35
